Would you kindly list Kd for each of these binders?
Biological target: T1, Human OSM (human, UniProt P13725 26-221)
T1 construct: Recombinant human OSM; also called hOSM; human Oncostatin M
T1 sequence: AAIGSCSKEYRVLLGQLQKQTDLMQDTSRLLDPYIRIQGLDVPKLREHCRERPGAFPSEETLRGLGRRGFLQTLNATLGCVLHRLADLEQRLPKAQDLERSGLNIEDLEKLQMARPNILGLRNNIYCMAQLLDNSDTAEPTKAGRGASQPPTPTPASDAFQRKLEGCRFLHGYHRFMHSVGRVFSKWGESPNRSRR
Experiment: SPR (ProteOn XPR36 or Biacore T100), captured supernatant, OSM as analyte; hatched cell: separate experiment
Numbers only, in µM.

| binder | assay-metric | reading |
| --- | --- | --- |
| Pos 100B Met (antibody, V domains shown, also called CDRH3 W100B>M) VH: EVQLVESGGGLVQPGGSLRLSCAASGFTFSSYAMSWVRQAPGKGLEWVATISDGGSFTYYLDNVRGRFTISRDNAKNSLYLQMNSLRAEDTAVYYCARDVGHTTFMYFDVWGRGTLVTVSS VL: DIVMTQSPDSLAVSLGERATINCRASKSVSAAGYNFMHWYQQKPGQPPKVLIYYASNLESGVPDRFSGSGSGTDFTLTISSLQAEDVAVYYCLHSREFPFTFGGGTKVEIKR | Kd | 0.0403 |

// each binder listed below needs its Kd
1. Pos 98 Met (antibody, V domains shown, also called CDRH3 H98>M) VH: EVQLVESGGGLVQPGGSLRLSCAASGFTFSSYAMSWVRQAPGKGLEWVATISDGGSFTYYLDNVRGRFTISRDNAKNSLYLQMNSLRAEDTAVYYCARDVGMTTFWYFDVWGRGTLVTVSS VL: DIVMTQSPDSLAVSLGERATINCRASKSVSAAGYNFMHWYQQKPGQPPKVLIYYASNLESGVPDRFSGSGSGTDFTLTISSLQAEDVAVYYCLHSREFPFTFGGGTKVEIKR
2. Pos 99 Met (antibody, V domains shown, also called CDRH3 T99>M) VH: EVQLVESGGGLVQPGGSLRLSCAASGFTFSSYAMSWVRQAPGKGLEWVATISDGGSFTYYLDNVRGRFTISRDNAKNSLYLQMNSLRAEDTAVYYCARDVGHMTFWYFDVWGRGTLVTVSS VL: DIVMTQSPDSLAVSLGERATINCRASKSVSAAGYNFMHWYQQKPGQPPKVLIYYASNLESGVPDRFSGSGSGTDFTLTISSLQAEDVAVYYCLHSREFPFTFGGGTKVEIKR
3. Pos 100B His (antibody, V domains shown, also called CDRH3 W100B>H) VH: EVQLVESGGGLVQPGGSLRLSCAASGFTFSSYAMSWVRQAPGKGLEWVATISDGGSFTYYLDNVRGRFTISRDNAKNSLYLQMNSLRAEDTAVYYCARDVGHTTFHYFDVWGRGTLVTVSS VL: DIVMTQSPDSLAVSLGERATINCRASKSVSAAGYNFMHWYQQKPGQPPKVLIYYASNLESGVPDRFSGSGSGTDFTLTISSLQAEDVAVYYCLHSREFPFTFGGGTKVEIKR

(A)
[0.00693, 0.00162, 0.0362]

Entry source: patent US20130251724A1
